meta.source: PubChem BioAssay

Measured z-score values are reported for all entries that follow.
assay.comment: S6 kinase pathway phospho-S6 level changes – cell-based, A549, cytoblot, luminescence, serum-stimulated, primary screen (AID 1158);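 also: serum-stimulated A549 lung adenocarcinoma cells; signal is phosphorylated S6 detected by cytoblot immunostaining with HRP secondary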
measurement.context: 5 h, higher = more signal
# output: bare number, no unit

Some entries whose results are on file:
# compound, z-score
measured = [
    ("COc1ccc([Si](C)(C)[C@@H]2[C@@H](CCO)O[C@]3(C(=O)N(Cc4ccccc4)c4ccc(N(C=O)c5ccccc5)cc43)[C@H]2C)cc1", 0.418),
    ("O=C1O[C@@H](c2ccccc2)[C@@H](c2ccccc2)N2[C@@H](c3ccccc3OCCO)[C@]3(C(=O)Nc4ccc(C#CC5(O)CCCCCC5)cc43)[C@@H](C(=O)NC[C@H](O)c3ccccc3)[C@H]12", -0.308),
    ("COc1ccccc1CN1C(=O)c2ccccc2[C@](Cc2ccccc2I)(C(=O)NC2CC2)[C@@H]1c1ccc(CO)cc1", -0.154),
    ("O=C1O[C@H](c2ccccc2)[C@H](c2ccccc2)N2[C@H]1[C@@H](C(=O)NC[C@H](O)c1ccccc1)[C@]1(C(=O)Nc3ccc(C#CC4=CCCCC4)cc31)[C@H]2c1ccc(O)cc1", 1.98),
]

[in] Which z-score value is on record for O=C(CS)NCCCCCCNC(=O)[C@H]1C[C@H]2C(=O)N3CCC[C@H]3C(=O)N2[C@H]1c1ccc(O)cc1 ?
[out] -0.126

[in] Similarly, O=C1OCCC/C=C\[C@H]2OC34C=CCN(CCN5CCOCC5)C(=O)[C@H]3N(CCO)C(=O)[C@@H]4C12 (stereo partly specified) ?
[out] -0.364

----------
tested.system: Dihydroorotate dehydrogenase (quinone), mitochondrial (Plasmodium falciparum (isolate 3D7)) (UniProt Q08210)
Sequence (Q08210 whole entry, looked up): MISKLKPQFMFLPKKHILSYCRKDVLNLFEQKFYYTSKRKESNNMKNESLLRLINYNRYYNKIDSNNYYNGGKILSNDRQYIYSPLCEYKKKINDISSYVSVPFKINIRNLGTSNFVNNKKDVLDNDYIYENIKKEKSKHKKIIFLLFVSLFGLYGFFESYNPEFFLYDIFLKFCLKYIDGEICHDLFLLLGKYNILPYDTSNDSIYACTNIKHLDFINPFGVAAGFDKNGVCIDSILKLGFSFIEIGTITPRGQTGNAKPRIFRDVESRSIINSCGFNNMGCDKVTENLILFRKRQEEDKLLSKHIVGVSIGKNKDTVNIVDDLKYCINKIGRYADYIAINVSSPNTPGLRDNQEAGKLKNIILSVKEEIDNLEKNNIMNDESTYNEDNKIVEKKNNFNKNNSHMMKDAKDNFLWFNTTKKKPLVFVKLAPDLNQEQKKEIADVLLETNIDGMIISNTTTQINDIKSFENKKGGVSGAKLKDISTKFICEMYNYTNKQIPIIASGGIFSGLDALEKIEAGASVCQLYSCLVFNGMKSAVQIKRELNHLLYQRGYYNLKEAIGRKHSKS
assay.comment: inhibition of P. falciparum DHODH – biochemical, C-terminal His tag, absorbance 600 nm, primary screen (AID 1175);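 also: recombinant parasite enzyme with a five histidine tag at its C terminus; test concentration not given here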
measurement.context: PfDHODH enzyme, DCIP absorbance 600 nm; higher = more signal, called active from +8 up or from −8 down
Measured composite z-score values are reported for all entries that follow.
# output: bare number, no unit

# compound, metric.name, val
rows = [
    ("C[N+](C)(C)CCCC[C@@H]1NC(=O)[C@H]2C[C@@H](C(=O)O)[C@@H](c3cccc(OCCO)c3)N2C1=O", "composite z-score", 0.16),
    ("[N-]=[N+]=Nc1ccccc1[C@@H]1OC(c2ccc(OCCCO)cc2)=N[C@]1(CCS(=O)(=O)c1ccccc1)C(=O)O", "composite z-score", -23.4),
    ("CCN(CC)c1ccc(N2CC=CC34O[C@@H]5/C=C\\CCC(C)OC(=O)C5[C@H]3C(=O)N(CCCCCCO)[C@@H]4C2=O)cc1 (stereo partly drawn)", "composite z-score", -0.788),
    ("O=C(NCc1ccccc1)[C@@H]1c2ccccc2C(=O)N(Cc2cc(F)cc(C(F)(F)F)c2)[C@H]1c1ccc(CO)cc1", "composite z-score", 0.131),
    ("COc1ccc([Si](C)(C)[C@@H]2[C@@H](CCn3cc([C@H](O)c4ccccc4)nn3)O[C@]3(C(=O)N(C)c4ccccc43)[C@H]2C)cc1", "composite z-score", 0.283),
]

[in] Which composite z-score value is on record for C=CCNC(=O)[C@H]1[C@@H]2C(=O)O[C@@H](c3ccccc3)[C@@H](c3ccccc3)N2[C@@H](c2ccc(O)cc2)[C@]12C(=O)Nc1ccc(C#Cc3ccc(OC)cc3)cc12 ?
[out] -27

[in] Similarly, CC1(C)C(=O)C(c2ccccc2)=C2CN3C(=O)N(CCc4ccccc4)C(=O)C3(Cc3ccccc3)C=C21 (stereo not drawn) ?
[out] 0.362

[in] Similarly, C#C[C@H](O[Si](C#CCCCCCC)(C(C)C)C(C)C)c1ccccc1 ?
[out] -0.719

----------
assay.comment: binders of probe aHhip on microarray, primary screen, stem cell growth factor project, biochemical, small-molecule microarray, fluorescence 635/667 (AID 1087);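 also: score merges spot fluorescence at 667nm with spot signal to noise ratio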
measurement.context: higher = more signal
metric.name: composite z-score
# output: bare number, no unit

Some entries whose results are on file:
# compound, composite z-score
measured = [
    ("COc1ccc([Si](C)(C)[C@@H]2[C@@H](CCO)O[C@]3(C(=O)N(Cc4ccc(N5C(=O)c6cccc7cccc5c67)cc4)c4ccccc43)[C@H]2C)cc1", -0.189),
    ("COc1cc(CO)cc(I)c1O[C@H]1C=C(C(=O)NCCO)C[C@@H](N(CCc2cccc(F)c2)C(=O)CCC2CCCC2)[C@@H]1O", 0.219),
    ("COC(=O)c1nc2oc1CC[C@@H](CO)NC(=O)N(C)Cc1cn(nn1)C[C@H](Cc1ccccc1)NC2=O", -0.226),
    ("C=C(CCCC)/C(=C/C[C@H](OC(C)=O)c1ccc(CO)o1)c1cc(C(=O)OC)ccc1OC", -0.0618),
    ("CN1C(=O)C2C(C1=O)C1C=C(c3ccc(CO)cc3)C2C(C2CC2)N1Cc1sc2ccccc2c1Cl (stereo not drawn)", 0.2),
]

[in] Which composite z-score value is on record for O=C1C2C=CC(C(O)c3ccc(-c4ccccc4)s3)N(Nc3ccccc3F)C2C(=O)N1c1ccccc1 (stereo not drawn) ?
[out] -0.0296

[in] Similarly, O=C1OCCC/C=C\[C@H]2OC34C=CCN(CCN5CCOCC5)C(=O)[C@H]3N(CCO)C(=O)[C@@H]4C12 (stereo partly drawn) ?
[out] -0.137

[in] Similarly, O=C(NCC(F)(F)F)[C@@H]1c2ccccc2C(=O)N(Cc2ccccc2)[C@H]1c1ccc(CO)cc1 ?
[out] -0.0078

----------
assay.comment: resazurin metabolic signal in HepG2 cells – cell-based, resazurin fluorescence, 24 h, PK04 Diversity Set, profiling panel (AID 1172); also: test concentration not given here
measurement.context: HepG2 viability, higher = more signal
Response field label takes True when z-score is strictly below -0.7 and False in all other cases.

Field: example entries. Status: answers known.
# compound, label
measured = [
    ("CCCCN1CC=CC23O[C@@H]4/C=C\\CCCOC(=O)C4[C@H]2C(=O)N(C(C)CO)[C@@H]3C1=O (some centres not stated)", "True"),
    ("O=C1C[C@@](C(=O)O)(c2ccc([N+](=O)[O-])cc2)[C@@H](c2ccc(CO)cc2I)N1CC12CC3CC(CC(C3)C1)C2", "True"),
    ("C=CCNC(=O)[C@@H]1[C@H]2C(=O)O[C@H](c3ccccc3)[C@H](c3ccccc3)N2[C@H](c2ccccc2OCCO)[C@@]12C(=O)N(C(=O)OCCOC)c1ccc(C#CCC(C(=O)OC)C(=O)OC)cc12", "False"),
]

Next item in the queue.
[in] Determine whether this compound shows z-score lower than -0.7 (ties excluded): CC(=O)NCCCC[C@@H]1NC(=O)[C@@H]2C[C@H](C(=O)NCc3ccc(F)cc3)[C@H](c3ccc(O)cc3)N2C1=O
[out] False

----------
Test system: Sonic hedgehog protein (Shh)
assay.comment: Sonic hedgehog microarray binding compounds – biochemical, small-molecule microarray, 635/667 nm fluorescence, primary screen (AID 1151);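 also: Shh protein binding to compounds spotted on small-molecule microarray slides; score combines spot fluorescence intensity with signal-to-noise across triplicate slides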
measurement.context: 635 nm fluorescence, higher = more signal
metric.name: composite z-score

# molecule, tested.system, composite z-score
data = [
    ("Cc1c(NC(=O)/C(C#N)=C/C=C/c2ccccc2)c(=O)n(-c2ccccc2)n1C", "Sonic hedgehog protein (Shh)", 0.522),
]

[in] Which composite z-score value is on record for Cc1cccc(/C=C/C=O)c1 ?
[out] 0.0638

[in] Similarly, O=C(CS)NCCCCCNC(=O)[C@H]1C[C@H]2C(=O)N[C@@H](Cc3ccccc3)C(=O)N2[C@H]1c1cccc(OCCO)c1 ?
[out] 1.83

[in] Similarly, COCCOC(=O)N1C(=O)[C@@]2(c3cc(C#CCCO)ccc31)[C@H](C(=O)NC[C@H](O)c1ccccc1)[C@H]1C(=O)O[C@H](c3ccccc3)[C@H](c3ccccc3)N1[C@@H]2c1ccc(OCCO)cc1 ?
[out] 1.85

[in] Similarly, C[N+](C)(C)CCCC[C@@H]1NC(=O)[C@@H]2C[C@H](C(=O)NCCCCCCNC(=O)CS)[C@H](c3cccc(OCCO)c3)N2C1=O ?
[out] 1.54

[in] Similarly, O=C1C2C=CC(C(O)c3ccccn3)N(Nc3ccccc3F)C2C(=O)N1c1ccccc1 (stereo unspecified) ?
[out] -0.461

[in] Similarly, [N-]=[N+]=NCc1ccccc1[C@@H]1OC(c2ccc(OCCCO)cc2)=N[C@]1(Cc1ccccc1)C(=O)O ?
[out] -0.934

----------
tested.system: Epidermal growth factor receptor (Homo sapiens) (UniProt P00533)
Sequence (P00533 whole entry, looked up): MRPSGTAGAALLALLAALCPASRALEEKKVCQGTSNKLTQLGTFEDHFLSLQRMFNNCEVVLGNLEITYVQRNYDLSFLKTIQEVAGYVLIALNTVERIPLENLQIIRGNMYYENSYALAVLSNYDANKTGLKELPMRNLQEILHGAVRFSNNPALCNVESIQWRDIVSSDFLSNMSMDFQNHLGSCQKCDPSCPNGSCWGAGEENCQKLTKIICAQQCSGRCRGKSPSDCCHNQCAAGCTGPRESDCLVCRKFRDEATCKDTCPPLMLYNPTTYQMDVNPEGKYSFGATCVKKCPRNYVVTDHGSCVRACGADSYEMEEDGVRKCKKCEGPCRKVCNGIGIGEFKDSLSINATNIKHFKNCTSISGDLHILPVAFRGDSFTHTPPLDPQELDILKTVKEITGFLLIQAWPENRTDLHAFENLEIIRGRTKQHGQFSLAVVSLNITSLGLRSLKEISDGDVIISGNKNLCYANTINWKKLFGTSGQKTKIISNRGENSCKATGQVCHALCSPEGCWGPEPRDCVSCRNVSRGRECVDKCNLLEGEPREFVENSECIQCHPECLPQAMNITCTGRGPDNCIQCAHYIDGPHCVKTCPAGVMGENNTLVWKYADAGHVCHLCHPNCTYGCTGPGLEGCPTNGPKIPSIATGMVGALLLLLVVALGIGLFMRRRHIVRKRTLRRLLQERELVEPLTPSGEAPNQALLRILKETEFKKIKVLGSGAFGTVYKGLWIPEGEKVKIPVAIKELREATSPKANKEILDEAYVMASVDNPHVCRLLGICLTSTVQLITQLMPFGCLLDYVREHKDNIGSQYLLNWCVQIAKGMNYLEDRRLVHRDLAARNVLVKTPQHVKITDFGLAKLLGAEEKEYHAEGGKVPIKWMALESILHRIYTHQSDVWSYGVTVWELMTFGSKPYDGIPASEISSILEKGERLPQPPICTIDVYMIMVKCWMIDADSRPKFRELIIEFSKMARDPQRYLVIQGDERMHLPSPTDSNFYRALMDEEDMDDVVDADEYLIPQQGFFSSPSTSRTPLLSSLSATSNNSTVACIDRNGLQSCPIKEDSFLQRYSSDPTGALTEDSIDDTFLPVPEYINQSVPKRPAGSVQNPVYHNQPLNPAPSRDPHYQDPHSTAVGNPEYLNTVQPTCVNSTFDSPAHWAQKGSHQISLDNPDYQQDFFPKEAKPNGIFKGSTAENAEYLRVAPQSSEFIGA
assay.comment: compounds binding epidermal growth factor receptor – biochemical, small-molecule microarray, 635 nm fluorescence, primary screen (AID 1104);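 also: score merges 667 nm emission intensity with spot signal to noise over triplicate slides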
measurement.context: EGFR binding, higher = more signal
Measured composite z-score values are reported for all entries that follow.
# output: bare number, no unit

Some entries whose results are on file:
# item.smiles, composite z-score
rows = [
    ("Oc1ccc2cc[n+](Cc3cccc(OC(F)(F)F)c3)cc2c1", 1.2),
    ("CC(=O)NCCCC[C@@H]1NC(=O)[C@@H]2C[C@H](C(=O)NCCCCCC[N+](C)(C)C)[C@H](c3cccc(OCCO)c3)N2C1=O", 0.341),
    ("CO[C@H]1O[C@H](CO)[C@@H](OC(=O)Nc2ccc3c(c2)OCO3)[C@H](OC(=O)Nc2ccc3c(c2)OCO3)[C@H]1OC(=O)Nc1ccc2c(c1)OCO2", 0.258),
]

[in] Which composite z-score value is on record for CC(C)C(=C=CC[C@H](O)c1ccccc1OCCO)CCO ?
[out] -0.585
